The molecules below have reported pKi for purified human Factor XIa (Homo sapiens, UniProt P03951).
pKi: −log10 of the molar value.
measured.property: pKi

Worked cases, pKi given:
- molecule: "C[C@@H]1CCC[C@H](N2CCC(c3cc(Cl)ccc3-n3cc(Cl)nn3)=CC2=O)c2cc(F)cc(c2)-c2c(cnn2C)NC1=O"
  measured.property: "pKi"
  readout.number: 10.00
- molecule: "C[C@@H]1CCC[C@H](N2CCC(c3cc(Cl)ccc3-n3ccnn3)=CC2=O)c2cc(ccn2)-c2c(cnn2C2CC2)NC1=O (stereo in doubt)"
  measured.property: "pKi"
  readout.number: 8.85
- molecule: "C[C@H]1C(=O)Nc2cnn(C)c2-c2cc(F)cc(c2)[C@@H](N2CCC(c3cc(Cl)ccc3-n3cc(Cl)nn3)=CC2=O)CCC1F (some centres unmarked)"
  measured.property: "pKi"
  readout.number: 10.00
- molecule: "CCn1ncc2c1-c1ccnc(c1)[C@@H](N1CCC(c3c(F)ccc(Cl)c3F)=CC1=O)CCC[C@@H](C)C(=O)N2"
  measured.property: "pKi"
  readout.number: 7.89
- molecule: "C[C@@H]1CCC[C@H](N2CCC(c3c(-c4cnn(C(F)F)c4)ccc(Cl)c3F)=CC2=O)c2cc(ccn2)-c2c(cnn2C)NC1=O"
  measured.property: "pKi"
  readout.number: 9.00

I = C[C@@H]1CCC[C@H](N2CCC(c3cc(Cl)ccc3-n3ccnn3)=CC2=O)c2cc(ccn2)-c2c(cnn2C(F)F)NC1=O
II = C[C@@H]1CCC[C@H](N2CCC(c3cc(Cl)ccc3C#N)=CC2=O)c2cc(ccn2)-c2c(cnn2C(F)F)NC1=O
III = C[C@@H]1CCC[C@H](N2CCC(c3c(Cl)ccc(Cl)c3F)=CC2=O)c2cc(ccn2)-c2c(cnn2C)NC1=O
Sort by pKi, descending. In plain terms: list the labels in the order you were asked to.
I, II, III
(I: 9.06, II: 8.85, III: 8.57)

----------
- system.name: purified human plasma kallikrein (Homo sapiens, UniProt P03952)
- Construct: Plasma prekallikrein is a zymogen of a trypsin-like serine protease
- Sequence (P03952 391-638 limits assumed): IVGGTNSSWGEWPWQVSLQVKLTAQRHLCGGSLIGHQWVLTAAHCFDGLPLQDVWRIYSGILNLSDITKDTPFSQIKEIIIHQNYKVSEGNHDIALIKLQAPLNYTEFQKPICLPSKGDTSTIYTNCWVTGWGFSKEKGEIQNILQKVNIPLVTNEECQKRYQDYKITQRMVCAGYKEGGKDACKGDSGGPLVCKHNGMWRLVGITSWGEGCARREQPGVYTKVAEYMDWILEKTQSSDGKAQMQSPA
- Sequence (P03952 20-390 partner limits assumed): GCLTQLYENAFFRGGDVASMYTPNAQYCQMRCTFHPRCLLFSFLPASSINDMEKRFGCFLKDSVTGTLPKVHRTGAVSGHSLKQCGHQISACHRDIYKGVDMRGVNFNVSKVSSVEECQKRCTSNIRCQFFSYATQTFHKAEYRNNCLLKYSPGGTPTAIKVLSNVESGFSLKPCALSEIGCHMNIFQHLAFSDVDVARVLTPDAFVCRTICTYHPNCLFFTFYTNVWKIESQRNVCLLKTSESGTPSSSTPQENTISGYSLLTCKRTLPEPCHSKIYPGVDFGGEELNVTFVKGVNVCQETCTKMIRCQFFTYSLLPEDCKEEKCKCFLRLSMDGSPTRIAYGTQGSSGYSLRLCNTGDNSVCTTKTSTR
- measurement.description: Plasma kallikrein inhibition assay, chromogenic substrate S-2302 (Ki)
pKi: −log10 of the molar value. Counter-ions that a name gives are not always drawn.
measured.property: pKi

Worked cases, pKi given:
- compound: "[2H]C([2H])([2H])n1ncc2c1-c1ccnc(c1)[C@@H](n1ccc(-c3cc(Cl)ccc3-n3cc(C(F)(F)F)nn3)cc1=O)CCC[C@@H](C)C(=O)N2 [Example 62]"
  pKi: 8.22
- compound: "C[C@@H]1CCC[C@H](N2CCC(c3c(C(F)(F)F)ccc(Cl)c3F)=CC2=O)c2cccc(c2)-c2c(cnn2C)NC1=O [Example 49]"
  pKi: 7.16
- compound: "C[C@@H]1CCC[C@H](n2ccc(-c3c(Cl)ccc(Cl)c3F)cc2=O)c2cc(ccn2)-c2c(cnn2C)NC1=O [Example 44]"
  pKi: 8.24
- compound: "C[C@@H]1CCC[C@H](N2CCC(c3cc(Cl)ccc3-n3ccnn3)=CC2=O)c2cc(ccn2)-c2c(cnn2C2CC2)NC1=O (stereo in doubt) [Example 5]"
  pKi: 7.28

A = C[C@@H]1CCC[C@H](n2ncc(-c3cc(Cl)ccc3-n3cc(C(F)(F)F)nn3)cc2=O)c2cc(ccn2)-c2c(cnn2C)NC1=O [Example 61, trifluoroacetate]
B = C[C@@H]1CCC[C@H](n2ccc(-c3cc(Cl)ccc3C#N)cc2=O)c2cc(ccn2)-c2c(cnn2C(F)F)NC1=O [Example 4]
Given A and given B , which shows the smaller recorded pKi? Identify your selection by its label.
A
(A: 7.18, B: 7.72)

----------
- system.name: purified human plasma kallikrein (Homo sapiens, UniProt P03952)
- Construct: Plasma prekallikrein is a zymogen of a trypsin-like serine protease; purchased Enzyme Research Laboratories
- measurement.description: Plasma kallikrein inhibition assay, chromogenic substrate S-2302 (Ki)
- Assay type: biochemical
Where a name gives a salt, the structure may show the parent alone.
measured.property: Ki (nM)

Worked cases, Ki given:
- compound: "[2H]C([2H])([2H])n1ncc2c1-c1ccnc(c1)[C@@H](n1ncc(-c3cc(Cl)ccc3-n3cc(C(F)(F)F)nn3)cc1=O)CCC[C@@H](C)C(=O)N2 [Example 63, trifluoroacetate]"
  Ki / nM: 77
- compound: "[2H]C([2H])([2H])n1ncc2c1-c1ccnc(c1)[C@@H](N1CCC(c3cc(Cl)ccc3C#N)=CC1=O)CCC[C@@H](C)C(=O)N2"
  Ki / nM: 4
- compound: "[2H]C([2H])([2H])n1ncc2c1-c1ccnc(c1)[C@@H](N1CCC(c3c(C(F)F)ccc(Cl)c3F)=CC1=O)CCC[C@@H](C)C(=O)N2"
  Ki / nM: 6
- compound: "C[C@@H]1CCC[C@H](N2CCC(c3c(Cl)ccc(Cl)c3F)=CC2=O)c2cc(ccn2)-c2c(cnn2C)NC1=O"
  Ki / nM: 6
- compound: "C[C@@H]1CCC[C@H](N2CCC(c3c(C(F)(F)F)ccc(Cl)c3F)=CC2=O)c2cc(ccn2)-c2c(cnn2C(F)F)NC1=O"
  Ki / nM: 110
- compound: "C[C@@H]1CCC[C@H](N2CCC(c3c(OC(F)F)ccc(Cl)c3F)=CC2=O)c2cc(ccn2)-c2c(cnn2C)NC1=O"
  Ki / nM: 7

a = C[C@H]1C(=O)Nc2cnn(C)c2-c2ccnc(c2)[C@@H](N2CCC(c3cc(Cl)ccc3-n3cc(Cl)nn3)=CC2=O)CCC1F (single isomer, unassigned; isomer b) [Example 15]
b = C[C@@H]1CCC[C@H](N2CCC(c3cc(Cl)ccc3-n3cc(Cl)nn3)=CC2=O)c2cc(F)cc(c2)-c2c(cnn2C)NC1=O
Given a and given b , which shows the smaller recorded Ki? Identify your selection by its label.
b
(b: 4 nM, a: 450 nM)

1 = C[C@@H]1CCC[C@H](N2CCC(c3cc(Cl)ccc3-n3cc(Cl)nn3)=CC2=O)c2cc(ccn2)-c2c(cnn2C2CC2(F)F)NC1=O (stereo partly drawn)
2 = C[C@@H]1CCC[C@H](N2CCC(c3cc(Cl)ccc3-n3ccnn3)=CC2=O)c2cc(ccn2)-c2nn(CC(=O)O)cc2NC1=O
3 = C[C@@H]1CCC[C@H](N2CCC(c3c(Br)ccc(Cl)c3F)=CC2=O)c2cc(ccn2)-c2c(cnn2C)NC1=O
Sort by Ki, descending. In plain terms: list the labels in the order you were asked to.
2, 1, 3
(2: 480 nM, 1: 30 nM, 3: 5 nM)

----------
The molecules below have reported Ki for UniProt P03951.
measured.property: Ki (nM)

- molecule: "C[C@@H]1CCC[C@H](n2ccc(-c3c(Cl)ccc(Cl)c3F)cc2=O)c2cc(ccn2)-c2c(cnn2C)NC1=O [Example 44]"
  system.name: "UniProt P03951"
  Ki [nM]: 2.2
- molecule: "C[C@@H]1CCC[C@H](N2CCC(c3cc(Cl)ccc3-n3cc(Cl)nn3)=CC2=O)c2cc(ccn2)-c2c(cnn2CCO)NC1=O [Example 35]"
  system.name: "UniProt P03951"
  Ki [nM]: 0.82
- molecule: "C[C@@H]1CCC[C@H](N2CCC(c3cc(Cl)ccc3-c3cnn(C(F)F)c3)=CC2=O)c2cc(ccn2)-c2c(cnn2C)NC1=O [Example 38]"
  system.name: "UniProt P03951"
  Ki [nM]: 1.8

1 = C[C@@H]1CCC[C@H](N2CCC(c3c(C(F)(F)F)ccc(Cl)c3F)=CC2=O)c2cc(ccn2)-c2c(cnn2C)NC1=O [Example 6]
2 = C[C@@H]1CCC[C@H](N2CCC(c3c(OC(F)F)ccc(Cl)c3F)=CC2=O)c2cc(ccn2)-c2c(cnn2C)NC1=O [Example 23]
3 = [2H]C([2H])([2H])n1ncc2c1-c1ccnc(c1)[C@@H](N1CCC(c3cc(Cl)ccc3-n3cc(C(F)(F)F)nn3)=CC1=O)CCC[C@@H](C)C(=O)N2 [Example 42]
Sort by Ki, descending. In plain terms: list the labels in the order you were asked to.
1, 2, 3

----------
pKi: −log10 of the molar value.
The compounds below have reported pKi for purified human Factor XIa (Homo sapiens, UniProt P03951).
measured.property: pKi

- substance.smiles: "C[C@@H]1CCC[C@H](N2CCC(c3cc(Cl)ccc3Br)=CC2=O)c2cc(ccn2)-c2c(cnn2C)NC1=O"
  readout.number: 8.33

1 = C[C@@H]1CCC[C@H](N2CCC(c3c(C(F)(F)F)ccc(Cl)c3F)=CC2=O)c2cccc(c2)-c2c(cnn2C)NC1=O
2 = [2H]C([2H])([2H])n1ncc2c1-c1cc(ccn1)[C@@H](n1ncc(-c3cc(Cl)ccc3-n3cc(C(F)(F)F)nn3)cc1=O)CCC[C@@H](C)C(=O)N2
Given 1 and given 2 , which shows the smaller recorded pKi? Identify your selection by its label.
1
(1: 8.49, 2: 9.15)
